- System: Drosophila SCA1 polyglutamine model, toxicity suppression
- assay_overview: Polyglutamine toxicity reduction dose response, whole organism Drosophila SCA1 model (AID 1595)
Records with an inconclusive call do not appear.
value_kind: EC50

For orientation, consider the following solved cases.
- compound: "OCC(S)CS (centres undefined)"
  subject_of_test: "Drosophila SCA1 polyglutamine model, toxicity suppression"
  assay_value: "0.3 µM"
- compound: "CC(N)CCCC(C)(C)O (centres undefined)"
  subject_of_test: "Drosophila SCA1 polyglutamine model, toxicity suppression"
  assay_value: "0.05 µM"
- compound: "N#C/C(=C\\c1ccc(O)cc1)C(=O)O"
  subject_of_test: "Drosophila SCA1 polyglutamine model, toxicity suppression"
  assay_value: "0.05 µM"
- compound: "C[N+](C)(C)CC(=O)[O-]"
  subject_of_test: "Drosophila SCA1 polyglutamine model, toxicity suppression"
  assay_value: "3 µM"
- compound: "C[C@@H]1CC2C3CCC4=CC(=O)C=C[C@]4(C)[C@@]3(F)[C@@H](O)C[C@]2(C)[C@@]1(O)C(=O)COP(=O)(O)O (some centres undefined)"
  subject_of_test: "Drosophila SCA1 polyglutamine model, toxicity suppression"
  assay_value: "0.75 µM"
- compound: "CC(=O)OCC(=O)[C@H]1CCC2C3CCC4=CC(=O)CC[C@]4(C)C3CC[C@@]21C (some centres undefined)"
  subject_of_test: "Drosophila SCA1 polyglutamine model, toxicity suppression"
  assay_value: "3 µM"

stdin: // EC50 lookup, key: C[N+](C)(C)CCOC(N)=O
stdout: 3 µM

stdin: // EC50 lookup, key: CN1CCOC(c2ccccc2)c2ccccc2C1 (centres undefined)
stdout: 0.05 µM

====

Entries and their EC50 values follow.
- Test system: Drosophila SCA1 polyglutamine model, toxicity suppression
- assay_overview: Polyglutamine toxicity reduction dose response, whole organism Drosophila SCA1 model (AID 1595)
Records with an inconclusive call do not appear.

For orientation, consider the following solved cases.
- compound: "C[C@@H]1O[C@@H](O[C@H]2[C@H](Oc3cc(O)c4c(c3)O[C@H](c3ccc(O)cc3)CC4=O)O[C@H](CO)[C@@H](O)[C@@H]2O)[C@H](O)[C@H](O)[C@H]1O"
  EC50: "5000 nM"
- compound: "Cc1cc(C(C)(C)C)cc(C)c1CC1=NCCN1"
  EC50: "250 nM"
- compound: "CCCCCCCCCCCCCCCC(=O)OC/C=C(C)/C=C/C=C(C)/C=C/C1=C(C)CCCC1(C)C"
  EC50: "275 nM"
- compound: "NS(=O)(=O)c1cc(C2(O)NC(=O)c3ccccc32)ccc1Cl (stereo unspecified)"
  EC50: "5000 nM"
- compound: "C=C1C2CC[C@H]3[C@]4(C)C[C@H](OC5OC(CO)C(OS(=O)(=O)O)C(OS(=O)(=O)O)C5OC(=O)CC(C)C)C[C@@H](C(=O)O)[C@H]4CC[C@]3(C2)[C@H]1O (stereo partly specified)"
  EC50: "225 nM"

Now consider the entry below.
stdin: // EC50 lookup, key: NC(Cc1cc(I)c(Oc2ccc(O)c(I)c2)c(I)c1)C(=O)O (stereo unspecified)
stdout: 5000 nM
